# System: SMMC-7721
# assay.overview: Induction of apoptosis in human SMMC7721 cells assessed as late apoptotic cells at 4 umol/L after 72 hrs by Alexa Fluor 488 Annexin/propidium iodide staining-based flow cytometric analysis (reference value: 0.29%)
# Type: functional
experimental.readout: Activity (%)
Answer in %, number only, no unit symbol.

Nc1ccccc1NC(=O)c1ccc(CSC(=S)N2CCN(c3ccncc3)CC2)cc1 = 52.78

Please look at this compound and report its Activity: `Nc1ccc(F)cc1NC(=O)c1ccc(CNC(=O)/C=C/c2cccnc2)cc1`
17.32

Give me measured Activity, please, for this compound: Nc1ccccc1NC(=O)c1ccc(CNC(=O)OCc2cccnc2)cc1 [ENTINOSTAT]
15.13

State its Activity for this compound: `CCN(Cc1ccncc1)C(=S)SCc1ccc(C(=O)Nc2ccccc2N)cc1`
31.88

Quick one: give measured Activity for `Nc1ccccc1NC(=O)c1ccc(CSC(=S)N2CCc3ccccc3C2)cc1`
26.7

====

# Test system: NCI-H1299
# assay.overview: Antiproliferative activity against human NCI-H1299 cells after 72 hrs by CCK-8 assay
# Type: functional, cell-based
# test.context: NCI-H1299, 72 h
The entries below come with measured IC50 values attached.
Write it as a number; the unit nM goes unstated.

Use the examples below as a reference point.
Nc1ccccc1NC(=O)c1ccc(CSC(=S)N2CCc3cc(Cl)ccc32)cc1 = 3280
CC(=O)Nc1ccc(C(=O)Nc2ccccc2N)cc1 = 33800
COC(=O)c1ccc2c(c1)CCN2C(=S)SCc1ccc(C(=O)Nc2ccccc2N)cc1 = 2020
Nc1ccccc1NC(=O)c1ccc(CSC(=S)N2CCN(c3ccncc3)CC2)cc1 = 2490

Kindly consider the entry below.
Note IC50 for the molecule shown: `CCN(Cc1ccncc1)C(=S)SCc1ccc(C(=O)Nc2ccccc2N)cc1`
750

====

# System: SMMC-7721
# assay.overview: Antiproliferative activity against human SMMC7721 cells after 72 hrs by CCK-8 assay
# Assay type: functional, cell-based
# test.context: SMMC-7721, 72 h
experimental.readout: IC50 (nM)
Write down the numeric answer in nM and omit the unit.

Guide cases for IC50, answers given:
Nc1ccccc1NC(=O)c1ccc(CSC(=S)N2CCN(c3ccncc3)CC2)cc1 = 1340
Nc1ccccc1NC(=O)c1ccc(CSC(=S)N2CCc3cc(Cl)ccc32)cc1 = 1880
CC1CCCCN1C(=S)SCc1ccc(C(=O)Nc2ccccc2N)cc1 (configuration not stated) = 2950

Shift focus to the following entry.
Name the recorded IC50 of the item `Nc1ccccc1NC(=O)c1ccc(CNC(=O)OCc2cccnc2)cc1` in your answer.
5970

====

# System: HCT-116
# assay.overview: Antiproliferative activity against human HCT116 cells after 72 hrs by CCK-8 assay
# Format: functional, cell-based
# test.context: HCT-116, 72 h
experimental.readout: IC50 (nM)
Reply with just the number (in nM).

COC(=O)c1ccc2c(c1)CCN2C(=S)SCc1ccc(C(=O)Nc2ccccc2N)cc1 = 13200
Nc1ccccc1NC(=O)c1ccc(CSC(=S)N2CCN(c3ccc(F)cc3)CC2)cc1 = 2730
Nc1ccccc1NC(=O)c1ccc(CNC(=O)OCc2cccnc2)cc1 = 470

Fill in reported IC50 for this entry: `Nc1ccccc1NC(=O)c1ccc(CSC(=S)N2CCc3cc(Cl)ccc32)cc1`
3210

Return IC50 for the following compound: CC1CCCCN1C(=S)SCc1ccc(C(=O)Nc2ccccc2N)cc1 (configuration not stated)
1320

Identify measured IC50 associated with `Nc1ccccc1NC(=O)c1ccc(CSC(=S)N2CCc3ccccc32)cc1`
2700

Given `CCN(Cc1ccncc1)C(=S)SCc1ccc(C(=O)Nc2ccccc2N)cc1` , respond with its IC50.
750
